# Experimental target: SIRT1 (Homo sapiens)
# Assay overview: Mass spectrometry based assay to identify modulators of SIRT1 activity (deacetylation of p53-based acetylated peptide substrate)
# Assay type: biochemical
# Experimental parameters: 25 min, SIRT1 activation, read-out: % FOLD ACT. (percent maximum fold activation)
Property: Emax; scope: individual compounds

CC1(C)CCN(C(=O)Nc2cncc(OCC(O)CO)n2)c2nc(-c3cccc(C(F)(F)F)c3)ccc21 (stereo not drawn)    > 200%
N#Cc1cccc(-c2ccc3c(n2)N(C(=O)Nc2cccc(OC[C@H](O)CO)n2)CCC3)c1    > 200%
Cc1cnccc1NC(=O)N1CCCOc2ccc(-c3cccc(Cl)c3)nc21    ≤ 200%
O=C(NC1(c2ccccn2)CC1)N1CCOc2ccc(-c3cccc(C(F)(F)F)c3)nc21    ≤ 200%
Cc1cncc(NC(=O)N2CCCc3ccc(-c4cccc(F)c4)nc32)c1    > 200%
Cc1cnc(CNC(=O)N2CCOc3ccc(-c4cccc(C(F)(F)F)c4)nc32)cn1    ≤ 200%
CCN1C(=O)CCN(C(=O)Nc2ccncc2F)c2nc(-c3cccc(Cl)c3)ccc21    ≤ 200%
Cc1cc(NC(=O)N2CC(C)(C)Oc3ccc(-c4cccc(Cl)c4)nc32)cc(C)n1    > 200%

Tell me Emax reported for `O=C(Nc1cccc(OC[C@H](O)CO)n1)N1CCOc2ccc(-c3ccc4c(c3)CCO4)nc21`
> 200%

For the compound `O=C(Nc1ccccn1)N1CCCCc2ccc(-c3cccc(C(F)(F)F)c3)nc21` , give its reported Emax.
≤ 200%

---

Some molecules, each annotated with its measured EC1.5 (concentration giving 1.5-fold activation).
# Experimental target: SIRT1 (Homo sapiens, UniProt Q96EB6)
# Assay overview: Mass spectrometry based assay to identify modulators of SIRT1 activity (deacetylation of p53-based acetylated peptide substrate)
# Type: biochemical

Solved entries (count: 10):
Cc1cc(OCC(O)CO)nc(NC(=O)N2CCCOc3ccc(-c4cccc(Cl)c4)nc32)n1 (stereo not drawn) [Compound 859]    1000 to 25000 nM
O=C(Nc1ccncc1)N1CCOc2c(N3CCNCC3)nc(-c3cccc(F)c3)nc21 [Compound 751]    1000 to 25000 nM
O=C1CCCN(C(=O)Nc2ccncc2F)c2nc(-c3cccc(Cl)c3)ccc21 [Compound 767]    1000 to 25000 nM
CCN1CCCN(C(=O)Nc2ccncc2F)c2nc(-c3cccc(Cl)c3)ccc21 [Compound 808]    1000 to 25000 nM
O=C1CCCN(C(=O)Nc2ccccn2)c2nc(-c3cccc(C(F)(F)F)c3)ccc21 [Compound 819]    < 1000 nM
O=C1CCN(C(=O)Nc2ccc(F)cn2)c2nc(-c3cccc(C(F)(F)F)c3)ccc21 [Compound 730]    1000 to 25000 nM
CC1(C)CCN(C(=O)Nc2cncc(OCC(O)CO)n2)c2nc(-c3cccc(C(F)(F)F)c3)ccc21 (stereo not drawn) [Compound 848]    < 1000 nM
O=C(Nc1cccc(OCC(O)CO)n1)N1CCOc2ncc(-c3cccc(C(F)(F)F)c3)nc21 (stereo not drawn) [Compound 742]    < 1000 nM
CC1(C)CCN(C(=O)Nc2ccc(F)cn2)c2nc(-c3cccc(C(F)(F)F)c3)ccc21 [Compound 843]    1000 to 25000 nM
CCN1CCCN(C(=O)Nc2nc(C)cs2)c2nc(-c3cccc(Cl)c3)ccc21 [Compound 794]    < 1000 nM

Entry O=C(Nc1ccccn1)N1CCCCc2ccc(-c3cccc(Cl)c3)nc21 [Compound 754] needs its EC1.5 (concentration giving 1.5-fold activation) filled in; supply it.
1000 to 25000 nM

Please look at this molecule and report its EC1.5 (concentration giving 1.5-fold activation): CN(C)c1nc(-c2cccc(F)c2)nc2c1OCCN2C(=O)Nc1ccncn1 [Compound 757]
> 25000 nM

Give a short answer stating reported EC1.5 (concentration giving 1.5-fold activation) for O=C(Nc1ccncc1)N1CCCC(F)(F)c2ccc(-c3cccc(Cl)c3)nc21 [Compound 770] .
> 25000 nM

Determine its reported EC1.5 (concentration giving 1.5-fold activation): O=C(Nc1ccncc1F)N1CCc2ccc(-c3cccc(C(F)(F)F)c3)nc21 [Compound 870]
< 1000 nM

Return EC1.5 (concentration giving 1.5-fold activation) for the following molecule: O=C(Nc1ccc(F)cn1)N1CCCCc2ccc(-c3cccc(C(F)(F)F)c3)nc21 [Compound 816]
> 25000 nM

Assign EC1.5 (concentration giving 1.5-fold activation) to the following record: COc1nccc(NC(=O)N2CCCC(=O)c3ccc(-c4cccc(C(F)(F)F)c4)nc32)n1 [Compound 830]
< 1000 nM

Please look at this molecule and report its EC1.5 (concentration giving 1.5-fold activation): COc1nccc(NC(=O)N2CCCCc3ccc(-c4cccc(C(F)(F)F)c4)nc32)n1 [Compound 811]
1000 to 25000 nM

Quote EC1.5 (concentration giving 1.5-fold activation) reported for CCN1CCCN(C(=O)Nc2cc(C)cc(C)n2)c2nc(-c3cccc(Cl)c3)ccc21 [Compound 806] please.
> 25000 nM

Return the recorded EC1.5 (concentration giving 1.5-fold activation) value; entry: O=C1NCc2cccc(NC(=O)N3CCCOc4ccc(-c5cccc(Cl)c5)nc43)c21 [Compound 885]
1000 to 25000 nM

Give reported EC1.5 (concentration giving 1.5-fold activation) value for O=C1CCCN(C(=O)Nc2ccccn2)c2nc(-c3cccc(Cl)c3)ccc21 [Compound 768]
< 1000 nM

Output measured EC1.5 (concentration giving 1.5-fold activation) for this item: O=C(Nc1ccncc1)N1CCOc2ncc(-c3cccc(C(F)(F)F)c3)nc21 [Compound 723]
1000 to 25000 nM

Supply EC1.5 (concentration giving 1.5-fold activation) value. Item: Cc1cc(OCC(O)CO)nc(NC(=O)N2CCC(F)(F)c3ccc(-c4cccc(C(F)(F)F)c4)nc32)n1 (stereo not drawn) [Compound 824]
1000 to 25000 nM

For O=C1CCCN(C(=O)Nc2ccncc2)c2nc(-c3cccc(C(F)(F)F)c3)ccc21 [Compound 828] , write its EC1.5 (concentration giving 1.5-fold activation).
1000 to 25000 nM

Answer with the recorded EC1.5 (concentration giving 1.5-fold activation) of O=C1CCN(C(=O)Nc2ccncc2)c2nc(-c3cccc(C(F)(F)F)c3)ccc21 [Compound 719] only.
1000 to 25000 nM

Quickly give me recorded EC1.5 (concentration giving 1.5-fold activation) for Cc1cc(OCC(O)CO)nc(NC(=O)N2CCOc3ccc(-c4cccc(C(F)(F)F)c4)nc32)n1 (stereo not drawn) [Compound 698]
1000 to 25000 nM

Answer with the recorded EC1.5 (concentration giving 1.5-fold activation) of Cc1cc(NC(=O)N2CCCC(=O)c3ccc(-c4cccc(Cl)c4)nc32)ccn1 [Compound 750] only.
< 1000 nM

Return value of EC1.5 (concentration giving 1.5-fold activation) for input O=C(Nc1cccc(OCC(O)CO)n1)N1CCOc2cnc(-c3cccc(C(F)(F)F)c3)nc21 (stereo not drawn) [Compound 717] , no commentary.
< 1000 nM

---

# Experimental target: SIRT1 (Homo sapiens, UniProt Q96EB6)
# Assay overview: Mass spectrometry based assay to identify modulators of SIRT1 activity (deacetylation of p53-based acetylated peptide substrate)
# Assay type: biochemical
# Experimental parameters: SIRT1 activation
Recorded endpoint: EC1.5

Please review the entries below; each comes with its answer.
CN1C(=O)CN(C(=O)Nc2ccncc2)c2nc(-c3cccc(C(F)(F)F)c3)ccc21 [Compound 525]    B (EC1.5 1-25 μM)
Cc1cc(NC(=O)N2CCOc3ccc(-c4ccnn4C)nc32)cc(C)n1 [Compound 575]    B (EC1.5 1-25 μM)
O=C(Nc1cccc(OC[C@H](O)CO)n1)N1CCCc2ccc(-c3cccc(C(F)(F)F)c3)nc21 [Compound 678]    A (EC1.5<1.0 μM)
Cc1cc(NC(=O)N2CCCOc3ccc(-c4cccc(C(F)(F)F)c4)nc32)ccn1 [Compound 577]    B (EC1.5 1-25 μM)
O=C(Nc1ccnc(N2CCC2)c1)N1CCOc2ccc(-c3cccc(C(F)(F)F)c3)nc21 [Compound 513]    A (EC1.5<1.0 μM)

Answer with the recorded EC1.5 of O=C(Nc1cccc(OC[C@H](O)CO)n1)N1CCOc2ccc(-c3ccc4c(c3)CCO4)nc21 [Compound 695] only.
A (EC1.5<1.0 μM)

State its EC1.5: Cc1cc(NC(=O)N2CCOc3ccc(-c4cccc(N(C)C)c4)nc32)cc(C)n1 [Compound 619]
A (EC1.5<1.0 μM)

---

# Experimental target: SIRT1 (Homo sapiens)
# Sequence (Q96EB6 1-747): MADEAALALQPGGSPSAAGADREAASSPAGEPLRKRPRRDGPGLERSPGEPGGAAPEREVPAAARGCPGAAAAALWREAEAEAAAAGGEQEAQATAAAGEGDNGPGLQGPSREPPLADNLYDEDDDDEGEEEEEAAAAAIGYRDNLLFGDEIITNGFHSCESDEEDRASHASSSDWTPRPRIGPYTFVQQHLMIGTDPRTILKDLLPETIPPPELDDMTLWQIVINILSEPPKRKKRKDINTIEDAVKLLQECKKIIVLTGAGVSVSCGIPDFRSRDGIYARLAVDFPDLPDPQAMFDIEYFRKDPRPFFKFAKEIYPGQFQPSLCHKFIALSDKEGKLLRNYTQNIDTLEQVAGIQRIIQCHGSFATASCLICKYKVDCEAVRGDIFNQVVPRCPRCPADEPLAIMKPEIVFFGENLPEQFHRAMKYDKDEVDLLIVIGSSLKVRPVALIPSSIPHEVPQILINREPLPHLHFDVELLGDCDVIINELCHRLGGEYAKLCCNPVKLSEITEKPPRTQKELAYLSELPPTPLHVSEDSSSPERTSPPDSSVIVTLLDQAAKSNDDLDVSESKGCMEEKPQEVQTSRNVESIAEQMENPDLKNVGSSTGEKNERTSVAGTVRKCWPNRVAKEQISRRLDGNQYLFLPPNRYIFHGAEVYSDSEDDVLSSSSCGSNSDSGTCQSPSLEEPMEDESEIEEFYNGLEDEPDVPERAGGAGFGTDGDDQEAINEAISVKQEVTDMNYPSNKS
# Assay overview: Mass spectrometry based assay to identify modulators of SIRT1 activity (deacetylation of p53-based acetylated peptide substrate)
# Format: biochemical
# Experimental parameters: 25 min, SIRT1 activation, read-out: % FOLD ACT. (percent maximum fold activation)
Recorded endpoint: Emax

Some compounds with recorded Emax:
Cc1cc(C)nc(NC(=O)N2CCOc3c(C)cc(-c4cccc(C(F)(F)F)c4)nc32)c1    ≤ 200%
O=C(Nc1cccnc1)N1CCCc2ccc(-c3cccc(Cl)c3)nc21    > 200%
O=C(Nc1cccc(OC[C@H](O)CO)n1)N1CCCc2ccc(-c3cccc(F)c3)nc21    > 200%
CN1CCN(C(=O)Nc2ccncc2)c2nc(-c3cccc(C(F)(F)F)c3)ccc21    > 200%
O=C1CCCN(C(=O)Nc2ccncc2)c2nc(-c3cccc(C(F)(F)F)c3)ccc21    > 200%
O=C1CCN(C(=O)Nc2ccc(F)cn2)c2nc(-c3cccc(C(F)(F)F)c3)ccc21    ≤ 200%
O=C(Nc1ccncc1F)N1CCCCc2ccc(-c3cccc(Cl)c3)nc21    > 200%
CC1CCN(C(=O)Nc2ccc(F)cn2)c2nc(-c3cccc(C(F)(F)F)c3)ccc21 (stereo not drawn)    ≤ 200%

Please indicate Emax recorded for `O=C(Nc1ccnc(N2CCCC2)c1)N1CCCOc2ccc(-c3cccc(N4CCCC4)c3)nc21`
> 200%
